// reported T/C per item
System: L1210 leukemia ip in BDF1 mice, survival T/C
Assay: NCI In Vivo Anticancer Drug Screen. Data for tumor model L1210 Leukemia (intraperitoneal) in B6D2F1 (BDF1) mice
Settings: endpoint: mean survival time; dose: 400.0 mg/kg/injection; schedule: Q04DX003 (ip); vehicle: saline; higher = longer survival
Toxic doses and inconclusive results are not listed.

{"columns": ["Compound", "Study system", "T/C"],
 "data": [
  ["COc1cccc(CC(N)=O)c1OC", "L1210 leukemia ip in BDF1 mice, survival T/C", "97 % of control"],
  ["CC1C2C=CC1C(c1c3ccc(=O)c(O)c-3oc3c(O)c(O)ccc13)C2C(=O)O (stereo not drawn)", "L1210 leukemia ip in BDF1 mice, survival T/C", "100 % of control"],
  ["O=C1/C(=C/c2ccco2)CCC2CC3(CCC12)OCCO3 (stereo not drawn)", "L1210 leukemia ip in BDF1 mice, survival T/C", "94 % of control"],
  ["CC(C)(C)NC(=O)C1CCCC(C(=O)NC(C)(C)C)C1 (stereo not drawn)", "L1210 leukemia ip in BDF1 mice, survival T/C", "88 % of control"],
  ["O=c1[nH]cc(F)c(=O)[nH]1", "L1210 leukemia ip in BDF1 mice, survival T/C", "97 % of control"],
  ["N#CCc1ccccc1S(=O)(=O)O", "L1210 leukemia ip in BDF1 mice, survival T/C", "101 % of control"],
  ["COc1ccc(N=NN(C(C)=O)c2ccccc2)cc1", "L1210 leukemia ip in BDF1 mice, survival T/C", "123 % of control"],
  ["CC(O)C(F)(F)C(F)(F)C(F)(F)C(C)O (stereo not drawn)", "L1210 leukemia ip in BDF1 mice, survival T/C", "96 % of control"],
  ["O=S(=O)([O-])CC[n+]1ccc(-c2ccccc2)o1", "L1210 leukemia ip in BDF1 mice, survival T/C", "118 % of control"],
  ["COC(=O)C1C(O)CN2CCCC12 (stereo not drawn)", "L1210 leukemia ip in BDF1 mice, survival T/C", "93 % of control"],
  ["COC(=O)C12COC(=O)C1COC2=O (stereo not drawn)", "L1210 leukemia ip in BDF1 mice, survival T/C", "109 % of control"],
  ["NNC(=O)CCCCCC(=O)NN", "L1210 leukemia ip in BDF1 mice, survival T/C", "102 % of control"],
  ["CC(=O)OC1CC2(Cl)C(Cl)=C(Cl)C1(Cl)C2(Cl)Cl (stereo not drawn)", "L1210 leukemia ip in BDF1 mice, survival T/C", "103 % of control"]
]}

* * *

Tested on: L1210 leukemia ip in BDF1 mice, survival T/C
Assay: NCI In Vivo Anticancer Drug Screen. Data for tumor model L1210 Leukemia (intraperitoneal) in B6D2F1 (BDF1) mice
Details: endpoint: mean survival time; dose: 200.0 mg/kg/injection; schedule: Q04DX003 (ip); vehicle: Klucel (hydroxypropylcellulose) (HPC); higher = longer survival
Inconclusive results and toxic doses are left out.
// reported T/C per item

{"columns": ["Molecule", "T/C"],
 "data": [
  ["Cc1[nH]c(=S)[nH]c(=O)c1CN(CCO)CCO", "91 % of control"],
  ["CC(=O)C1C=NCCN=CC(C(C)=O)C(C)=NCCCN=C1C.[Ni] (stereo not drawn)", "95 % of control"],
  ["C=CCc1c(C)ccc(C)c1OC", "102 % of control"],
  ["CC(C)=NNc1ccnc(SCc2ccccc2)n1", "97 % of control"],
  ["O=C(c1ccccc1)C1C(c2ccccc2)N1CCl (stereo not drawn)", "105 % of control"],
  ["COc1ccc(COC(=O)Nc2cccc(Cl)c2)cc1", "102 % of control"],
  ["O=C(Nc1ccccc1C(F)(F)F)c1ccc(Cl)c(Cl)c1", "90 % of control"],
  ["Cc1ccc(C(Br)C2=CC(C)(C)c3ccccc3C2=O)cc1 (stereo not drawn)", "104 % of control"],
  ["COc1ccc(OC)c(C(=O)CCCCCCCCC(=O)O)c1", "95 % of control"],
  ["N#CCc1ccc2c(c1)[nH]c1ccccc12", "100 % of control"],
  ["COc1cccc(C2CCN(C)C2)c1 (stereo not drawn)", "103 % of control"],
  ["O=S(=O)(OCC#CCOS(=O)(=O)c1cccs1)c1cccs1", "105 % of control"],
  ["CC(C)(COC(=O)c1ccccc1)COC(=O)c1ccccc1", "107 % of control"]
]}

Hello, the source for this data is PubChem BioAssay AID248, in case you need it.
